Target entity: 447Fv
Protocol summary: Fluorescence quenching of 447Fv upon titration with the peptide
Design: species or system human
Stated conditions: read-out: dissociation constant / binding affinity for 447Fv
pKd: −log10 of the molar value.
Quantity kind: pKd

>  <Substance>
CRKSIHC—GPGRCFYTTGC [R5A-M1]

>  <Quantity kind>
pKd

>  <Value measured>
8.00

$$$$
